biological target: IRE1 (Saccharomyces cerevisiae, UniProt P32361); assay: co-crystal structure with quercetin; type: biochemical
Sequence (P32361 658-1115): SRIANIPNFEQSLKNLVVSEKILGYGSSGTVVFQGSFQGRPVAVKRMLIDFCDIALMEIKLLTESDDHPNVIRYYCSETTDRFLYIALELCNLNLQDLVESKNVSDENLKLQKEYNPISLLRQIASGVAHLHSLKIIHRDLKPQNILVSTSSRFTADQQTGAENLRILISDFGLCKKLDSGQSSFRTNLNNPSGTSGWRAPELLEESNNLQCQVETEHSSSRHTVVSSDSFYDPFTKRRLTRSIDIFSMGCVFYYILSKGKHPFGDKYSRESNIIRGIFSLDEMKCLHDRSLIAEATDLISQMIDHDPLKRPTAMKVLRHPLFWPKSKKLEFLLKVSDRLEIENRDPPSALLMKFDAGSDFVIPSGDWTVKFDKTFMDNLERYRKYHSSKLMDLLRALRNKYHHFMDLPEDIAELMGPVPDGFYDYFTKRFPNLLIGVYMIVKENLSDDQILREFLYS
quantity_measured: EC50

-- ask EC50 for Nc1ncnc2c1ncn2[C@@H]1O[C@H](COP(=O)(O)OP(=O)(O)O)[C@@H](O)[C@H]1O ?
-- reply ~40 µM
